tested on: Bacillus subtilis; experiment: Antibacterial activity against Bacillus subtilis by two fold serial dilution method; format: functional
result_type: MIC (µg/mL)

smiles_notation=COc1ccc2cc3[n+](cc2c1OCCN(CCn1cncn1)Cc1ccccc1Cl)CCc1cc2c(cc1-3)OCO2.[Cl-] experimental_value=8
smiles_notation=CCn1cc(C(=O)O)c(=O)c2cc(F)c(N3CCNCC3)cc21 experimental_value=1
smiles_notation=Clc1cccc(CN(CCBr)CCn2cncn2)c1 experimental_value=256
smiles_notation=Clc1ccccc1CN(CCBr)CCn1cncn1 experimental_value=256
smiles_notation=COc1ccc2cc3[n+](cc2c1OCCN(CCn1cncn1)Cc1ccc(Cl)cc1Cl)CCc1cc2c(cc1-3)OCO2.[Cl-] experimental_value=8
smiles_notation=Fc1cccc(CN(CCBr)CCn2cncn2)c1 experimental_value=256
smiles_notation=COc1ccc2cc3[n+](cc2c1OCCN(CCn1cncn1)Cc1cccc(F)c1)CCc1cc2c(cc1-3)OCO2.[Cl-] experimental_value=8
smiles_notation=Fc1ccccc1CN(CCBr)CCn1cncn1 experimental_value=256
smiles_notation=Clc1ccc(CN(CCBr)CCn2cncn2)cc1 experimental_value=256
smiles_notation=COc1ccc2cc3[n+](cc2c1OCCN(CCn1cncn1)Cc1ccccc1F)CCc1cc2c(cc1-3)OCO2.[Cl-] experimental_value=8

The reported measurements were obtained from ChEMBL document CHEMBL2311281.
